Here the recorded melting point is given for each entry.

Use the examples below as a reference point.
COMPOUND: O=[N+]([O-])c1ccc(-c2ccc(C=NNc3nc(-c4ccc(F)cc4)cs3)o2)cc1 [Compound 3]
melting point: 241 to 242 °C
--
COMPOUND: O=[N+]([O-])c1cc(Cl)ccc1-c1ccc(C=NNc2nc(-c3ccc(Cl)cc3)cs2)o1 [Compound 11]
melting point: 186 to 187 °C

Query O=[N+]([O-])c1ccc(-c2csc(NN=Cc3ccc(-c4ccc([N+](=O)[O-])cc4)o3)n2)cc1 [Compound 2] yields melting point of 252 to 254 °C

According to the records, this compound O=[N+]([O-])c1ccc(-c2ccc(C=NNc3nc(-c4ccc(Br)cc4)cs3)o2)cc1 [Compound 5] displays melting point of 243 to 244 °C

The recorded melting point for O=[N+]([O-])c1ccc(-c2ccc(C=NNc3nc(-c4ccccc4)cs3)o2)cc1 [Compound 1] is 213 to 214 °C

Field melting point (entry COc1ccc(-c2csc(NN=Cc3ccc(-c4ccc([N+](=O)[O-])cc4)o3)n2)cc1 [Compound 7] ) reads 232 to 233 °C

melting point reported for this compound O=[N+]([O-])c1ccc(-c2ccc(C=NNc3nc(-c4ccc(Cl)cc4)cs3)o2)cc1 [Compound 4] : 229 to 231 °C

Sure, the documented melting point for Cc1ccc(-c2csc(NN=Cc3ccc(-c4ccc([N+](=O)[O-])cc4)o3)n2)cc1 [Compound 6] is 236 to 237 °C

Record O=[N+]([O-])c1cc(Cl)ccc1-c1ccc(C=NNc2nc(-c3ccc(Br)cc3)cs2)o1 [Compound 12] . Reported melting point: 199 to 201 °C

The reported melting point of the compound Cc1ccc(-c2csc(NN=Cc3ccc(-c4ccc(Cl)cc4[N+](=O)[O-])o3)n2)cc1 [Compound 13] was 166 to 167 °C

The recorded melting point for entry O=[N+]([O-])c1ccc(-c2csc(NN=Cc3ccc(-c4ccc(Cl)cc4[N+](=O)[O-])o3)n2)cc1 [Compound 9] equals 216 to 220 °C

In plain terms, O=[N+]([O-])c1cc(Cl)ccc1-c1ccc(C=NNc2nc(-c3ccc(F)cc3)cs2)o1 [Compound 10] has a documented melting point of 208 to 209 °C

Just so you know, measured melting point for COc1ccc(-c2csc(NN=Cc3ccc(-c4ccc(Cl)cc4[N+](=O)[O-])o3)n2)cc1 [Compound 14] came out at 206 to 207 °C

Memo: O=[N+]([O-])c1cc(Cl)ccc1-c1ccc(C=NNc2nc(-c3ccccc3)cs2)o1 [Compound 8] , reported melting point: 194 to 195 °C
